The origin of these recorded values is paper PMC10786919.

# measurement.description: Lactate dehydrogenase (LDH) release assay
# Type: cell-based
# conditions: LDH: Cytotoxicity assay EC50
Starred links: 1 amine or outer side, 2 acyl side, 3 side chain; linkers in the order of their positions; H or OH if unused. Positions of bridges follow the written chain, without caps; N, C: chain ends. Non-standard residues stand in square brackets, D forms with d. Residues, ends and D or L forms follow the SMILES beside them. dR8(desαMe) = O=C([C@@H](CCCCCCC=[*:3])N[*:1])[*:2]; Nle(6-ylidene) = O=C([C@H](CCCC=[*:3])N[*:1])[*:2]; Lys(N3) = [N-]=[N+]=NCCCC[C@H](N)C(=O)O; tBuAla = CC(C)(C)C[C@H](N)C(=O)O; R8 = C=CCCCCCC[C@@](C)(N)C(=O)O; Cba = N[C@@H](CC1CCC1)C(=O)O; S5 = C=CCCC[C@](C)(N)C(=O)O; βAla = NCCC(=O)O
endpoint.label: EC50

{"columns": ["compound", "measurement"],
 "data": [
  ["CC(=O)N1CCC[C@H]1C(=O)N[C@@H](CCCNC(=N)N)C(=O)N[C@@H](Cc1ccccc1)C(=O)N[C@]1(C)CCCCCCC=CCCC[C@@](C)(C(=O)N[C@@H](CCC(=O)O)C(N)=O)NC(=O)[C@H](CC(C)C)NC(=O)[C@H](CCCNC(=N)N)NC(=O)[C@H](Cc2ccc(O)cc2)NC(=O)[C@H](Cc2c[nH]c3ccccc23)NC(=O)[C@H](Cc2ccc(O)cc2)NC(=O)[C@H](CCC(=O)O)NC1=O [MP-2030] (Ac-PRF[R8]EYWYRL[S5]E-NH2; staple 4-11)", "> 50 µM"],
  ["CC(=O)N[C@H](C(=O)N[C@@H](CO)C(=O)N[C@@H](Cc1ccccc1)C(=O)N[C@@H]1CCCCCCC=CCCC[C@@H](C(N)=O)NC(=O)[C@H](CC(C)(C)C)NC(=O)[C@H](CC(C)C)NC(=O)[C@H](C)NC(=O)[C@H](Cc2c[nH]c3ccccc23)NC(=O)[C@H](Cc2ccc(O)cc2)NC(=O)[C@H](CCC(=O)O)NC1=O)[C@@H](C)O [MP-150] (Ac-TSF[dR8(desαMe)]EYWAL[tBuAla][Nle(6-ylidene)]-NH2; staple 4-11)", "> 50 µM"],
  ["CC(=O)N[C@@H](CCCCN=[N+]=[N-])C(=O)NCCC(=O)N[C@@H](CC(C)C)C(=O)N[C@@H](CCCNC(=N)N)C(=O)N[C@@H](Cc1ccccc1)C(=O)N[C@]1(C)CCCCCCC=CCCC[C@@](C)(C(=O)N[C@@H](CO)C(=O)N[C@@H](C)C(=O)N[C@@H](C)C(N)=O)NC(=O)[C@H](CC2CCC2)NC(=O)[C@H](CCC(N)=O)NC(=O)[C@H](C)NC(=O)[C@H](Cc2c[nH]c3ccccc23)NC(=O)[C@H](Cc2ccc(O)cc2)NC(=O)[C@H](CCC(=O)O)NC1=O [MP-553] (Ac-[Lys(N3)][βAla]LRF[R8]EYWAQ[Cba][S5]SAA-NH2; staple 6-13)", "> 50 µM"]
]}
